The origin of these recorded values is PubChem BioAssay (NCATS).

Assay: qHTS for Inhibitors of Plasmodium falciparum (GB4) proliferation (AID 504315); further: nearly all actives have a fitted effect of over 50% in size
Details: P. falciparum GB4 in erythrocytes, SYBR Green DNA, 72 h; series mostly up to 6.7 µM
Results filed as inconclusive are left out. Activity calls are given as the source filed them. The call rests on the fitted dose curve; in most records, active means well fitted inhibition curve with a large enough effect; inconclusive means small, poorly fitted or top-dose-only effect, or effect the other way; inactive means flat fitted curve, though single readings scatter.
Your reply should match one of these outcome classes. active, inactive

CCCCS(=O)(=O)N1C2=NC(C(=O)OC)=C(C(=O)OC)[C@@H]3Nc4ccccc4[C@]23C[C@H]1C(=O)OC : inactive
CCCCS(=O)(=O)N1C2=NC(C(=O)OC)=C(C(=O)OC)[C@@H]3N(C)c4ccc(OC)cc4[C@]23C[C@H]1C(=O)OC : inactive
CCCNC(=O)N1C2=NC(C(=O)OC)=C(C(=O)OC)[C@@H]3Nc4ccccc4[C@]23C[C@H]1C(=O)OC : inactive
COC(=O)C[C@H]1c2ccccc2[C@H]2C(=C[C@@H](C)[C@H]3C(=O)N(O)C(=O)[C@H]32)N1C(=O)OC : inactive
COC(=O)C1=C(C(=O)OC)[C@@H]2N(C)c3ccc(OC)cc3[C@@]23C[C@@H](C(=O)OC)N(C(C)=O)C3=N1 : inactive

Tell me the recorded outcome of this test for "COC(=O)C1=C(C(=O)OC)[C@@H]2N(Cc3ccccc3)c3ccccc3[C@@]23C[C@@H](C(=O)OC)N(S(=O)(=O)c2ccc(C)cc2)C3=N1" .
active

Tell me the recorded outcome of this test for "Cc1cc2c(c(=O)n1-c1ccccc1)[C@H]1O[C@](c3ccsc3)(Cc3cc(C#N)ccc31)O2" .
inactive

Tell me the recorded outcome of this test for "CC#CCN1c2ccccc2[C@]23C[C@@H](C(=O)OC)N(C(C)=O)C2=NC(C(=O)OC)=C(C(=O)OC)[C@H]13" .
inactive
